- Test system: SNB-75 CNS
- Run description: NCI-60 one-dose screen, 48 h
- Assay conditions: 10 µM unless noted
This is part of a sample that, as a whole, favours compounds with a hit. Of some 83,000 tested, about 20% had one in any assay. Calls of active or inactive are those of the source. Rule for the calls: active = growth percent below 10; inactive = the rest.
Write down the outcome that applies. Available outcomes: 1 for active, 0 for inactive

Asked: Field: outcome | Entry: CN1CCN(Cc2ccc(/C=N/Nc3ccnc4cc(Cl)ccc34)cc2)CC1
Given back: 0

Asked: Field: outcome | Entry: CC(C)(C)OC(=O)NCc1ccc(CNc2c([N+](=O)[O-])cnc3ccccc23)cc1
Given back: 0

Asked: Field: outcome | Entry: Cc1ccc(NC(=O)/C=C/c2ccc(OCCCOc3ccc4c(C)cc(=O)oc4c3)cc2)cc1
Given back: 1

Asked: Field: outcome | Entry: C#C[C@]1(O)CC[C@H]2[C@@H]3CC=C4c5sc(Nc6cc(Cl)ccc6OC)nc5CC[C@]4(C)[C@H]3CC[C@@]21C
Given back: 1

Asked: Field: outcome | Entry: O=C(CCCCCCN1CC(=O)N2[C@@H](c3ccc(Cl)s3)c3[nH]c4ccccc4c3C[C@H]2C1=O)NO
Given back: 0

Asked: Field: outcome | Entry: O=C(NNc1nc2cc(F)cc(F)c2n2cccc12)c1cccnn1
Given back: 0

Asked: Field: outcome | Entry: CC(=O)C1=C(C)NC(NNc2ccccc2)=NC1c1ccc([N+](=O)[O-])cc1 (stereo not given)
Given back: 0

Asked: Field: outcome | Entry: CN1CCN(Cc2ccc(NC(=O)c3cncc(C#Cc4cnc5ccc(OCC(F)F)nn45)c3)cc2C(F)(F)F)CC1
Given back: 1

Asked: Field: outcome | Entry: CCCCN1C(=O)/C(=c2\sc3n(c2=O)C2C(NN=3)N(CC)C(=O)N2CC)c2cccc(C)c21 (stereo not given)
Given back: 0

Asked: Field: outcome | Entry: O=C(Nc1cccc(Cl)c1)Nc1nc2cc([N+](=O)[O-])ccc2o1
Given back: 0

Asked: Field: outcome | Entry: NS(=O)(=O)c1ccc(Nc2nc(N/N=C/c3ccc4c(c3)OCO4)nc(Nc3ccccc3)n2)cc1
Given back: 0

Asked: Field: outcome | Entry: N/C(=N\C(N)=N\c1nc2ccccc2s1)c1ccc(Cl)cc1
Given back: 0

Asked: Field: outcome | Entry: COc1ccccc1Cn1cc(C#N)c(N)c1C(=O)c1ccc(Br)cc1
Given back: 0

Asked: Field: outcome | Entry: CCOC(=O)c1c(NC(=O)c2cccc(C(F)(F)F)c2)sc2c3c(ccc12)OCN(C)C3
Given back: 0

Asked: Field: outcome | Entry: CCOC(=O)c1cccc(NC2=C(Cl)C(=O)C(C)=C(C)C2=O)c1
Given back: 0

Asked: Field: outcome | Entry: O=C(/C=C/C=C/c1csc(Br)n1)NO
Given back: 0
